target: Amine oxidase [flavin-containing] A (Homo sapiens) (UniProt P21397); experiment: Ratio between TN and Km against MAO A
Sequence (P21397 whole entry, looked up): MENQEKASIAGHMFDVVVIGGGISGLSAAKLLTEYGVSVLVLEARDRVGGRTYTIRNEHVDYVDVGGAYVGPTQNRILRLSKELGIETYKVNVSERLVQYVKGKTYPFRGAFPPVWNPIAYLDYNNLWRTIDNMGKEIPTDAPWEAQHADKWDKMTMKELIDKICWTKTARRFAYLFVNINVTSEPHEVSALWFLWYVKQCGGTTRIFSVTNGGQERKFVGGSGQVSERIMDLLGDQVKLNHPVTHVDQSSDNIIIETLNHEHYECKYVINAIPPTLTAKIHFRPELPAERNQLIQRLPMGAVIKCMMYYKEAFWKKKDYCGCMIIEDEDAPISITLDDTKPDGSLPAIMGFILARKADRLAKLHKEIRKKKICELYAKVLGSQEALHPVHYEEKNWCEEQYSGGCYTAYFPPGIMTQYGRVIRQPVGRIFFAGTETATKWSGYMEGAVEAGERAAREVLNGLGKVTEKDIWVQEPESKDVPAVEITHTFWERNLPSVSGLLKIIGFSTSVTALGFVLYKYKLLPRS
experimental_readout: Ratio

Illustrative cases are given below, each with its answer.
CN1CC=C(c2ccc3ccccc3c2)CC1 2216
CN1CC=C(Cc2cccc3ccccc23)CC1 2592

1. CN1CC=C(CCc2cccs2)CC1
2. CN1CC=C(Cc2ccc3ccccc3c2)CC1
3. CN1CC=C(CCc2ccsc2)CC1
4. CN1CC=C(Cc2ccsc2)CC1
Problem: Order field: Ratio | Direction: descending (largest first) # format: label list in the order the request specifies
Solution: 2, 1, 3, 4

----------
molecular target: UniProtKB P56560; assay: Turnover number against MAO B (umol of substrate/min per umol of enzyme).; settings: cattle
Sequence (P56560 whole entry): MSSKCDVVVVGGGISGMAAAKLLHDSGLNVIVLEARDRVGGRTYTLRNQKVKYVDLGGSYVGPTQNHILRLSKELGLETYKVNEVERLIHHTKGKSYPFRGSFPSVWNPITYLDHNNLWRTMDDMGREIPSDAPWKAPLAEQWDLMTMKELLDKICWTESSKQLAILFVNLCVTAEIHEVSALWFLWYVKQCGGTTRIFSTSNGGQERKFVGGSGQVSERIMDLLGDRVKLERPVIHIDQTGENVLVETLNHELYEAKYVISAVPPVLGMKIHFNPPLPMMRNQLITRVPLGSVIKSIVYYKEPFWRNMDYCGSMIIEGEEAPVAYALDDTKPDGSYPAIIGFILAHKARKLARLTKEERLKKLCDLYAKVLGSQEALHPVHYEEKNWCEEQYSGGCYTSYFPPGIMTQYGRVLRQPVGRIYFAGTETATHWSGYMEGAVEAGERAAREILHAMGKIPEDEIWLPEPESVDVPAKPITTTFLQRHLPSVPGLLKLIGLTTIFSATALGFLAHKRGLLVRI
experimental_readout: TN (min⁻¹)

Illustrative cases are given below, each with its answer.
molecule	unit_tag	quantitative_result
CN1CC=C(Cc2ccc3ccccc3c2)CC1	min⁻¹	274
CN1CC=C(Cc2cccc3ccccc23)CC1	min⁻¹	89
CN1CC=C(c2ccccc2)CC1	min⁻¹	204

a. NCCC(=O)c1ccccc1N [KYNURAMINE]
b. CN1CC=C(CCc2ccc3ccccc3c2)CC1
Problem: Which record shows the lower TN: the first, a , or the second, b ? Answer format: the label of the selected item.
Solution: b
(b: 79 min⁻¹, a: 165 min⁻¹)
